Taken from ChEMBL document CHEMBL6096654.

Quick reference for IC50 among some compounds
Target: Tyrosine-protein phosphatase non-receptor type 11 (Homo sapiens, UniProt Q06124)
Sequence (Q06124 whole entry): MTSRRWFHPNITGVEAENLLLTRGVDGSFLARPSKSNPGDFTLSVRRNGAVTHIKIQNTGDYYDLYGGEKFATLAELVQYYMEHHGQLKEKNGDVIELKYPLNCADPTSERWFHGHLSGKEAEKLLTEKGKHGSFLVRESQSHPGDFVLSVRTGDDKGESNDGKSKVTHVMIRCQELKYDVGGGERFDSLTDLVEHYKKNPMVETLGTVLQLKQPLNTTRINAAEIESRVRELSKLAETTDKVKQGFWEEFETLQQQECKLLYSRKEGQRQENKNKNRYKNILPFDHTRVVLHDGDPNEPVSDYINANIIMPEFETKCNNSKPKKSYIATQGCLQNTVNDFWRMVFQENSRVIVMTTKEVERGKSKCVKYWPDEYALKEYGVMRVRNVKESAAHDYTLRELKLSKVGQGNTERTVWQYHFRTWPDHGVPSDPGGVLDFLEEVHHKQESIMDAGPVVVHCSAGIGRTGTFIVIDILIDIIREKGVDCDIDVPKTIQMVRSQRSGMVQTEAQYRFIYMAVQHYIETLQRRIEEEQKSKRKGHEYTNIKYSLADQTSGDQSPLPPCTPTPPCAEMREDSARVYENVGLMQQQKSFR

Field: example entries. Status: answers known.
{"structureSmilesString": "O=C(/C=C/c1cc(O)c(O)c(Br)c1Br)c1ccccc1Cl", "IC50": "> 20 µM"}
{"structureSmilesString": "CCOc1ccc(Oc2ccc(C(=O)/C=C/c3cc(O)c(O)c(Br)c3Br)cc2)cc1", "IC50": "> 20 µM"}
{"structureSmilesString": "O=C(/C=C/c1cc(O)c(O)c(Br)c1Br)c1cccc(C(F)(F)F)c1", "IC50": "> 20 µM"}
{"structureSmilesString": "Cc1ccccc1C(=O)/C=C/c1cc(O)c(O)c(Br)c1Br", "IC50": "> 20 µM"}
{"structureSmilesString": "CCOc1ccc(C(=O)/C=C/c2cc(O)c(O)c(Br)c2Br)cc1", "IC50": "> 20 µM"}

Now consider the entry below.
Item O=C(/C=C/c1cc(O)c(O)c(Br)c1)c1cc(Br)c(O)c(Br)c1 has what recorded IC50?
> 20 µM
